tested.on: HMGCR (TM1-8)-GFP (Cricetulus griseus)
Sequence (P00347 1-346): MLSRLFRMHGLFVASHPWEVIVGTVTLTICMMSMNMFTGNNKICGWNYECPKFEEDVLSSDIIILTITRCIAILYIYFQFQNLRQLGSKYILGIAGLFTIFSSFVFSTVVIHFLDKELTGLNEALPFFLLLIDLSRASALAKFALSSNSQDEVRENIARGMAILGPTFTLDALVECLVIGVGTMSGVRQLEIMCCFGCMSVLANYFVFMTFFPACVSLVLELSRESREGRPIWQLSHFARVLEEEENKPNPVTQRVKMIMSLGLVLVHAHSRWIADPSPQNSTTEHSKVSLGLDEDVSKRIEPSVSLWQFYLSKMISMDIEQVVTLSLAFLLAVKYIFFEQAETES
assay.method.text: HMGCR (TM1-8)-GFP fluorescent assay (high-content imaging) in CHG cells
protocol.conditions: read-out: Mean (HMGCR (TM1-8)-GFP signal relative to 0 μM = 100)
Rule: remaining activity at 5 µM below 20% gives label 1. Equal to or above 20% gives label 0.

Answered cases to consult:
Problem: Is remaining activity at 5 µM strictly under 20% for the entry CCC(O)CCCC[C@@H](C)C1CCC2C3C(CC[C@@]21C)[C@@]1(C)CC[C@H](O)C(C)(C)C1=C[C@@H]3O (stereo partly shown) [Compound 108] ?
Result: label 0

Problem: Also COCCCC[C@@H](C)C1CCC2C3C(CC[C@@]21C)[C@@]1(C)CC[C@H](O)C(C)(C)C1=C[C@@H]3O (stereo partly shown) [Compound 78] , if possible.
Result: label 0

Problem: Also CCC(O)(CC)CCCC[C@@H](C)C1CCC2C3C(CC[C@@]21C)[C@@]1(C)CC[C@H](O)C(C)(C)C1=C[C@@H]3O (stereo partly shown) [Compound 101] , if possible.
Result: label 1

---
Problem: Is remaining activity at 5 µM strictly under 20% for the entry C[C@H](CCCCC(=O)O)C1CCC2C3C(CC[C@@]21C)[C@@]1(C)CC[C@H](O)C(C)(C)C1=C[C@@H]3O (stereo partly shown) [Compound 92] ?
Result: label 0

Problem: Also C=CCC(O)(CC=C)CCCC[C@@H](C)C1CCC2C3C(CC[C@@]21C)[C@@]1(C)CC[C@H](O)C(C)(C)C1=C[C@@H]3O (stereo partly shown) [Compound 102] , if possible.
Result: label 0

Problem: Also CC(O)CCCCC[C@@H](C)C1CCC2C3C(CC[C@@]21C)[C@@]1(C)CC[C@H](O)C(C)(C)C1=C[C@@H]3O (stereo partly shown) [Compound 124] , if possible.
Result: label 1

Problem: Also CC(O)CCCC[C@@H](C)C1CCC2C3C(CC[C@@]21C)[C@@]1(C)CC[C@H](O)C(C)(C)C1=C[C@@H]3O (stereo partly shown) [Compound 107] , if possible.
Result: label 1

Problem: Also C[C@H](CCCCCC(C)(C)O)C1CCC2C3C(CC[C@@]21C)[C@@]1(C)CC[C@H](O)C(C)(C)C1=C[C@@H]3O (stereo partly shown) [Compound 117] , if possible.
Result: label 1

Problem: Also C=CCC(O)(CC=C)CC[C@@H](C)C1CCC2C3C(CC[C@@]21C)[C@@]1(C)CC[C@H](O)C(C)(C)C1=C[C@@H]3O (stereo partly shown) [Compound 58] , if possible.
Result: label 0

Problem: Also C[C@H](CCC(=O)O)C1CCC2C3C(CC[C@@]21C)[C@@]1(C)CC[C@H](O)C(C)(C)C1=C[C@@H]3O (stereo partly shown) [Compound 50] , if possible.
Result: label 0

Problem: Also C=CCC(O)(CC=C)CCCCC[C@@H](C)C1CCC2C3C(CC[C@@]21C)[C@@]1(C)CC[C@H](O)C(C)(C)C1=C[C@@H]3O (stereo partly shown) [Compound 119] , if possible.
Result: label 0

Problem: Also C=CCC(O)CCC[C@@H](C)C1CCC2C3C(CC[C@@]21C)[C@@]1(C)CC[C@H](O)C(C)(C)C1=C[C@@H]3O (stereo partly shown) [Compound 88] , if possible.
Result: label 1

Problem: Also CCC(O)(CC)CC[C@@H](C)C1CCC2C3C(CC[C@@]21C)[C@@]1(C)CC[C@H](O)C(C)(C)C1=C[C@@H]3O (stereo partly shown) [Compound 57] , if possible.
Result: label 0

Problem: Also C[C@H](CCCCC(C)(C)O)C1CCC2C3C(CC[C@@]21C)[C@@]1(C)CC[C@H](O)C(C)(C)C1=C[C@@H]3O (stereo partly shown) [Compound 100] , if possible.
Result: label 1
